Biological target: Human HER3, endogenous, on human cancer cell lines (SK-Br-3, MCF7, BT-474) (human, UniProt P21860 20-1342)
Sequence (P21860 20-1342): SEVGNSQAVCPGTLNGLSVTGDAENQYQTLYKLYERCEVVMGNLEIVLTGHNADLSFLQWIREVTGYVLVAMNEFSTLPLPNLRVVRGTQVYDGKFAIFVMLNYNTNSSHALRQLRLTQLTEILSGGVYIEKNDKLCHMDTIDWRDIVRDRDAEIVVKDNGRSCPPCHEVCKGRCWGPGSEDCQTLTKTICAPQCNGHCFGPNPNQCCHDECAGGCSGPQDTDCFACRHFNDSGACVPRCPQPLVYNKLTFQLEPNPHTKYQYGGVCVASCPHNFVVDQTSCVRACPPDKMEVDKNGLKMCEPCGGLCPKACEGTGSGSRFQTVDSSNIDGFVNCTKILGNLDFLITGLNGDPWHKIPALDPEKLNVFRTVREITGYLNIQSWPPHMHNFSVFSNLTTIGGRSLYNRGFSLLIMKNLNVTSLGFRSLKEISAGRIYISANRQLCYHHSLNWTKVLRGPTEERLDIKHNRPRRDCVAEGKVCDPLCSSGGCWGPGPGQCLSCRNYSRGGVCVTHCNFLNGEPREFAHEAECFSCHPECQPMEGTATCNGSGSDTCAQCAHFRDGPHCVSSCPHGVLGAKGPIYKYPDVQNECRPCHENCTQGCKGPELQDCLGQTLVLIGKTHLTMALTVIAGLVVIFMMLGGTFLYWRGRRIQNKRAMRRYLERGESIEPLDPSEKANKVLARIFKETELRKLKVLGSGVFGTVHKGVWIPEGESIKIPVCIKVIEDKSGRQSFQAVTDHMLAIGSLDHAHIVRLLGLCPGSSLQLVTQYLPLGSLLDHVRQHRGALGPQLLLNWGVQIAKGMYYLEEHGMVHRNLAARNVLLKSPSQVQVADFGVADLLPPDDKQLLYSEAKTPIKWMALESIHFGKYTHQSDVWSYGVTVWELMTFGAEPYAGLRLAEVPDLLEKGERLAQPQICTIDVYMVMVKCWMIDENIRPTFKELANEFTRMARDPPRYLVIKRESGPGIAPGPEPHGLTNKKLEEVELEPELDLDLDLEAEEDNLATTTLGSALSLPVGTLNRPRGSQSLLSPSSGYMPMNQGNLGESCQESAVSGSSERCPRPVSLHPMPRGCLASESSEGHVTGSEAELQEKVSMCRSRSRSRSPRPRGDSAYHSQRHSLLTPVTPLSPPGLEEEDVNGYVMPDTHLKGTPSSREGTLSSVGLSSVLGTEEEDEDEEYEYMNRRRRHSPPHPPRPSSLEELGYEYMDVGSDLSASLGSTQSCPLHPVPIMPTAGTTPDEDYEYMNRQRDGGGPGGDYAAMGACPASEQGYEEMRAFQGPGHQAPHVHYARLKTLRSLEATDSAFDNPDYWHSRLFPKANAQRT
Assay: cell-based or functional assay
attribute_measured: BT474 pHER3 IC50

MOR12510 (antibody, human IgG1, kappa, V domains shown, tested as IgG) VH: QVQLVQSGAEVKKPGESLKISCKGSGYSFTNSWVAWVRQMPGKGLEWMGIIYPGNSDTIYSPSFQGQVTISADKSISTAYLQWSSLKASDTAMYYCARVHIIQPPSAWSYNAMDVWGQGTLVTVSS VL: DIQMTQSPSSLSASVGDRVTITCRASQSISTYLNWYQQKPGKAPKLLIFGASNLQSGVPSRFSGSGSGTDFTLTISSLQPEDFATYYCQQDIDEPWTFGQGTKVEIKR ... 34 pM
MOR13870 (antibody, human IgG1, kappa, V domains shown, tested as IgG) VH: QVQLVQSGAEVKKPGESLKISCKGSGYSFSNYWIAWVRQMPGKGLEWMGIIYPGTSDTIYSPSFQGQVTISADKSISTAYLQWSSLKASDTAMYYCARVHIIQPPSAWSYNAMDVWGQGTLVTVSS VL: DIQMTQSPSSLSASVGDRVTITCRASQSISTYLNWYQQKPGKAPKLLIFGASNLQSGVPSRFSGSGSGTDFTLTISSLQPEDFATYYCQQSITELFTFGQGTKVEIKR ... 535 pM
MOR13867 (antibody, human IgG1, kappa, V domains shown, tested as IgG) VH: QVQLVQSGAEVKKPGESLKISCKGSGYSFSNYWIAWVRQMPGKGLEWMGIIYPGQSDTIYSPSFQGQVTISADKSISTAYLQWSSLKASDTAMYYCARVHIIQPPSAWSYNAMDVWGQGTLVTVSS VL: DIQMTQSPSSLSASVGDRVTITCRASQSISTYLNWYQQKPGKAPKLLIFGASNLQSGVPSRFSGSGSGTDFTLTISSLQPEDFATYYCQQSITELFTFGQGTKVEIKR ... 643 pM
MOR13763 (antibody, human IgG1, kappa, V domains shown, tested as IgG) VH: QVQLVQSGAEVKKPGESLKISCKGSGYSFTSYWVAWVRQMPGKGLEWMGIIYPGQSDTIYSPSFQGQVTISADKSISTAYLQWSSLKASDTAMYYCARVHIIQPPSAWSYNAMDVWGQGTLVTVSS VL: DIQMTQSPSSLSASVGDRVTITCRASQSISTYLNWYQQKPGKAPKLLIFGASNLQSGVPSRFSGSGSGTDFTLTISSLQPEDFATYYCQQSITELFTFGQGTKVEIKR ... 19500 pM
MOR13868 (antibody, human IgG1, kappa, V domains shown, tested as IgG) VH: QVQLVQSGAEVKKPGESLKISCKGSGYSFSNYWIAWVRQMPGKGLEWMGIIYPGLSDTIYSPSFQGQVTISADKSISTAYLQWSSLKASDTAMYYCARVHIIQPPSAWSYNAMDVWGQGTLVTVSS VL: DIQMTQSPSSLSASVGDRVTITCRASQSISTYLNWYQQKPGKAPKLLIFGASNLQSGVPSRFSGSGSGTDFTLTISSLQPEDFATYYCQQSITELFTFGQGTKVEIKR ... 894 pM
MOR13869 (antibody, human IgG1, kappa, V domains shown, tested as IgG) VH: QVQLVQSGAEVKKPGESLKISCKGSGYSFSNYWIAWVRQMPGKGLEWMGIIYPGGSDTIYSPSFQGQVTISADKSISTAYLQWSSLKASDTAMYYCARVHIIQPPSAWSYNAMDVWGQGTLVTVSS VL: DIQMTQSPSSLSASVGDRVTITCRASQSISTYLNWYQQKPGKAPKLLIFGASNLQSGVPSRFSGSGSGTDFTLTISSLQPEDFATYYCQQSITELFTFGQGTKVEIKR ... 1330 pM
MOR13871 (antibody, human IgG1, kappa, V domains shown, tested as IgG) VH: QVQLVQSGAEVKKPGESLKISCKGSGYSFSNYWIAWVRQMPGKGLEWMGIIYPGSSDTIYSPSFQGQVTISADKSISTAYLQWSSLKASDTAMYYCARVHIIQPPSAWSYNAMDVWGQGTLVTVSS VL: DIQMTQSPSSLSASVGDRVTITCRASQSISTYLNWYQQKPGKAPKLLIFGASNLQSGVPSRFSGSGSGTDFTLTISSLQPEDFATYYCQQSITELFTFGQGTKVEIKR ... 608 pM
MOR13750 (antibody, human IgG1, kappa, V domains shown, tested as IgG) VH: QVQLVQSGAEVKKPGESLKISCKGSGYSFTSSWVAWVRQMPGKGLEWMGIIYPGGSDTIYSPSFQGQVTISADKSISTAYLQWSSLKASDTAMYYCARVHIIQPPSAWSYNAMDVWGQGTLVTVSS VL: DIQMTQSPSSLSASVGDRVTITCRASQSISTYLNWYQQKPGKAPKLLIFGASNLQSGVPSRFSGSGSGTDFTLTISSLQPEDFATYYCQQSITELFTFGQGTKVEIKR ... 6680 pM
MOR13754 (antibody, human IgG1, kappa, V domains shown, tested as IgG) VH: QVQLVQSGAEVKKPGESLKISCKGSGYSFTSYWVAWVRQMPGKGLEWMGIIYPGGSDTIYSPSFQGQVTISADKSISTAYLQWSSLKASDTAMYYCARVHIIQPPSAWSYNAMDVWGQGTLVTVSS VL: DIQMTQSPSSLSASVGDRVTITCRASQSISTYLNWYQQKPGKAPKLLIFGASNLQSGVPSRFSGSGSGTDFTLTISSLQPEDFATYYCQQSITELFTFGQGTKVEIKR ... 3900 pM
MOR13758 (antibody, human IgG1, kappa, V domains shown, tested as IgG) VH: QVQLVQSGAEVKKPGESLKISCKGSGYSFTLYWVAWVRQMPGKGLEWMGIIYPGQSDTIYSPSFQGQVTISADKSISTAYLQWSSLKASDTAMYYCARVHIIQPPSAWSYNAMDVWGQGTLVTVSS VL: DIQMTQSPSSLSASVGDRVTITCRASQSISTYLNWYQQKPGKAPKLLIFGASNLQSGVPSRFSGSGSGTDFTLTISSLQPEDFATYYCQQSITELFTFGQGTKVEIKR ... 382 pM
